# study-system: CDK2/CycE (Homo sapiens, UniProt P24941)
# Construct: GST
# protocol-details: CDK2/CycE kinase assay
# conditions: 0.5 μM ATP, histone IIIS, 22° C., 10 min
metric: IC50 (nM)

Reference set, count: 2
[[record]]
compound = "C[C@@H](Nc1nc(Nc2ccc(S(C)=NS(=O)(=O)Cc3ccccc3)cc2)ncc1Br)C(C)(C)O (mixture of isomers)"
readout_value = 28

[[record]]
compound = "C[C@@H](Nc1nc(Nc2ccc(S(C)=NS(=O)(=O)c3ccccc3)cc2)ncc1Br)C(C)(C)O (mixture of isomers)"
readout_value = 21


[I] CC(=O)Nc1nnc(S(=O)(=O)N=S(C)c2ccc(Nc3ncc(Br)c(N[C@H](C)C(C)(C)O)n3)cc2)s1 (mixture of isomers)
[II] CCCS(=O)(=O)N=S(C)c1ccc(Nc2ncc(Br)c(N[C@H](C)C(C)(C)O)n2)cc1 (mixture of isomers)
Of I and II , which shows the smaller IC50 value? Your answer should be the label of the entry you select.
II

---

# study-system: CDK1/CycB (Homo sapiens, UniProt P06493)
# Construct: GST
# Sequence (P06493 whole entry): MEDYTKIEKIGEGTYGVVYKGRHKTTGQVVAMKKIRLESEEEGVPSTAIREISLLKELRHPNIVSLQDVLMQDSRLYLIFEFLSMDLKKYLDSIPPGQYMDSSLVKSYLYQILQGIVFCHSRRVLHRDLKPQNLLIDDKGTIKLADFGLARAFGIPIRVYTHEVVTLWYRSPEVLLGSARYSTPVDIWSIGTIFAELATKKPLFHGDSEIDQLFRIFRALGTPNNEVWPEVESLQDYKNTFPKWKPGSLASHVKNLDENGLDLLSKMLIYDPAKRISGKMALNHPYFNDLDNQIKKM
# Sequence (P14635 whole entry partner): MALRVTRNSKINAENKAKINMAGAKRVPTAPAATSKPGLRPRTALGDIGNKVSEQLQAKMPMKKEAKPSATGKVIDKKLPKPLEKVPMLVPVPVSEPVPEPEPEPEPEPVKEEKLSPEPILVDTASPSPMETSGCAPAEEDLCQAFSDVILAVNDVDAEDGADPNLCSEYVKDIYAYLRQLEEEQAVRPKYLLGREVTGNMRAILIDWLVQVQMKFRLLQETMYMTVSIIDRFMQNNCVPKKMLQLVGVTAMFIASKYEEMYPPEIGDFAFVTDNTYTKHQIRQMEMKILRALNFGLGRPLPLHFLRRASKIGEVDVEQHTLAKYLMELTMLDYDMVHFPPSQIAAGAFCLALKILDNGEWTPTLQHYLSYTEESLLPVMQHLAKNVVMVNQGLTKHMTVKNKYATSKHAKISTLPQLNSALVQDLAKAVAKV
# protocol-details: CDK1/CycB kinase assay
# conditions: 0.5 μM ATP, histone IIIS, 22° C., 10 min
metric: IC50 (nM)

[P] C[C@@H](Nc1nc(Nc2ccc(S(C)=NS(=O)(=O)C(F)(F)F)cc2)ncc1Br)C(C)(C)O (mixture of isomers) [Example 14]
[Q] Cc1ccc(S(=O)(=O)N=S(C)c2ccc(Nc3ncc(Br)c(N[C@H](C)CO)n3)cc2)cc1 (mixture of isomers) [Example 8]
// which entry has the larger IC50 value, P or Q ? Your answer should be the label of the entry you select.
Q
(Q: 620 nM, P: 120 nM)

[I] C[C@@H](Nc1nc(Nc2ccc(S(C)=NS(=O)(=O)c3ccccc3)cc2)ncc1Br)C(C)(C)O (mixture of isomers) [Example 15]
[II] CCCS(=O)(=O)N=S(C)c1ccc(Nc2ncc(Br)c(N[C@H](C)C(C)(C)O)n2)cc1 (mixture of isomers) [Example 21]
[III] COc1ccc(S(=O)(=O)N=S(C)c2ccc(Nc3ncc(Br)c(N[C@H](C)C(C)(C)O)n3)cc2)cc1 (mixture of isomers) [Example 12]
Order the records, beginning with the lowest IC50 and ending with the highest. Provide the labels, sequenced as the question asks.
II, I, III
(II: 36 nM, I: 110 nM, III: 160 nM)

[I] C[C@@H](Nc1nc(Nc2ccc(S(C)=NS(=O)(=O)c3cnccc3Cl)cc2)ncc1Br)C(C)(C)O (mixture of isomers) [Example 11]
[II] C[C@@H](Nc1nc(Nc2ccc(S(C)=NS(C)(=O)=O)cc2)ncc1Br)C(C)(C)O (mixture of isomers) [Example 18]
Of I and II , which shows the smaller IC50 value? Your answer should be the label of the entry you select.
II

[P] CC(=O)Nc1nnc(S(=O)(=O)N=S(C)c2ccc(Nc3ncc(Br)c(N[C@H](C)C(C)(C)O)n3)cc2)s1 (mixture of isomers) [Example 19]
[Q] CC(=O)NCCNc1nc(Nc2ccc(S(C)=NS(=O)(=O)c3ccc(C)cc3)cc2)ncc1Br (racemic) [Example 23]
Of P and Q , which shows the smaller IC50 value? Your answer should be the label of the entry you select.
P

---

# study-system: KDR (VEGFR2) (Homo sapiens)
# Sequence (P35968 20-1356, species assumed): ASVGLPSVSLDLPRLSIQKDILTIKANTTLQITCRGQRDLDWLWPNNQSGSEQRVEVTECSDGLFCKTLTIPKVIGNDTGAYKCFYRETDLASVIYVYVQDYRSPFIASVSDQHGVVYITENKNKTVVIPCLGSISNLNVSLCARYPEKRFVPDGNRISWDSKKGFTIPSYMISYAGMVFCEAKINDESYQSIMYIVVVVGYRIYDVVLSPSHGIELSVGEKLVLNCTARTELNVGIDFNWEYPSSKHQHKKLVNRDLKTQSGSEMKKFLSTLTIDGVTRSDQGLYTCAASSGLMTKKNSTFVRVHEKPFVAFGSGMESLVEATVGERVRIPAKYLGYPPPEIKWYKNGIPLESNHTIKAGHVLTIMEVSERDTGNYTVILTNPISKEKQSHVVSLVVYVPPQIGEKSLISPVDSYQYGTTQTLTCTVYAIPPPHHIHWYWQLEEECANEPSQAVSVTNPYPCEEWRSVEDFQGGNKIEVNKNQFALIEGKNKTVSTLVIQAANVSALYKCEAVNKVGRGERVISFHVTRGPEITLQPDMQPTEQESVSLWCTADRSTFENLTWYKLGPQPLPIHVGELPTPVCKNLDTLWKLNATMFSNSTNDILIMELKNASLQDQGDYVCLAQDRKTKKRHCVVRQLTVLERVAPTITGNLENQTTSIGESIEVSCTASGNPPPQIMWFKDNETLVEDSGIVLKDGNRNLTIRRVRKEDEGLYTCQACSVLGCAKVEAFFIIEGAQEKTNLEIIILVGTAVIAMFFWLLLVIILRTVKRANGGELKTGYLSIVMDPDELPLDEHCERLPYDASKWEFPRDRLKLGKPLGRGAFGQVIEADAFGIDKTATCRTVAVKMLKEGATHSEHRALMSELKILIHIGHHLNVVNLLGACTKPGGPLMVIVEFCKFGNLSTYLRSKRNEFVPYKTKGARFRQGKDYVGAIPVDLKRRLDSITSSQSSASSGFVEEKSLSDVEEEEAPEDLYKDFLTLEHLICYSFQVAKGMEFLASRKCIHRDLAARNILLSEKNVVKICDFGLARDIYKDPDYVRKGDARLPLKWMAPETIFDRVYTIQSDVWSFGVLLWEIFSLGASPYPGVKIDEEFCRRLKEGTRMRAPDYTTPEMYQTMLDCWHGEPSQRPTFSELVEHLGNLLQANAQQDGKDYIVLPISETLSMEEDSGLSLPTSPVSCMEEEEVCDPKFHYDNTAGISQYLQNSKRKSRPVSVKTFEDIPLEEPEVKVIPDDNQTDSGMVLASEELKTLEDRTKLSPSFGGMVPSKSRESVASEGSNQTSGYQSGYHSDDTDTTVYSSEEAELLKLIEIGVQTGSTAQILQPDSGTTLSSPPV
pIC50: −log10 of the molar value.
metric: pIC50

[[record]]
compound = "CCS(=O)(=O)N=S(C)c1ccc(Nc2ncc(Br)c(N[C@H](C)C(C)(C)O)n2)cc1 (mixture of isomers)"
metric = "pIC50"
readout_value = 7.46

[[record]]
compound = "CCCS(=O)(=O)N=S(C)c1ccc(Nc2ncc(Br)c(N[C@H](C)C(C)(C)O)n2)cc1 (mixture of isomers)"
metric = "pIC50"
readout_value = 7.31

[[record]]
compound = "CC(=O)NCCNc1nc(Nc2ccc(S(C)=NS(=O)(=O)c3ccc(C)cc3)cc2)ncc1Br (racemic)"
metric = "pIC50"
readout_value = 7.46

[[record]]
compound = "C[C@@H](Nc1nc(Nc2ccc(S(C)=NS(=O)(=O)c3ccccc3)cc2)ncc1Br)C(C)(C)O (mixture of isomers)"
metric = "pIC50"
readout_value = 7.43

[[record]]
compound = "Cc1ccc(S(=O)(=O)N=S(C)c2ccc(Nc3ncc(Br)c(N[C@H](C)C(C)(C)O)n3)cc2)cc1 (mixture of isomers)"
metric = "pIC50"
readout_value = 7.44

[[record]]
compound = "COc1ccc(S(=O)(=O)N=S(C)c2ccc(Nc3ncc(Br)c(N[C@H](C)C(C)(C)O)n3)cc2)cc1 (mixture of isomers)"
metric = "pIC50"
readout_value = 7.42

